Quantity Kind: melting point (°C)

> print(dat)
                                   compound  value.qualifier  value.observed
1             C1=C(CCc2c[nH]c3ccccc23)CCNC1                =             155
2  Cn1nnc2cc(C(O)c3ccccc3)ccc21 (stereo not given)                =             129
3  C/C=C/CC(=O)N[C@H]1CC[C@H](CCN2CCN(c3nccc4c3OCC4)CC2)CC1                =             170
4      O=c1[nH]c2cc(N3CCCC3)c(F)cc2c(=O)n1O                >             250
5       CC(C)(C)NC(=O)c1ccc(S(=O)(=O)Cl)cc1                =             179

----------
Catalogue of compounds with associated melting point
Quantity Kind: melting point

> print(dat)
                                    compound  quantity.kind   value.observed
 1  CC1=C(c2ccncc2)SC(O)C(=O)N1 (configuration not stated)  melting point           214 °C
 2  COc1cc2c(cc1OC)C(=Cc1ccccc1[N+](=O)[O-])C(=O)CC2  melting point      63 to 64 °C
 3  CCOC(=O)CN1C(=O)COc2cc(F)c([N+](=O)[O-])cc21  melting point      79 to 81 °C
 4  CC1(CN2CCC(n3c(=O)[nH]c4ccccc43)CC2)OCc2ccccc2-n2cccc21 (configuration not stated)  melting point    199 to 201 °C
 5         COc1cc(C(=O)CCCC2CCCCC2)c(OC)cc1C  melting point  53.5 to 54.5 °C
 6  O=C(Nc1ccc2c(c1)CS(=O)(=O)N2)C(=O)N1CCC(Cc2ccc(F)cc2)CC1  melting point    183 to 184 °C
 7         Cc1cc(=O)[nH]c(NC(=N)Nc2ccccc2)n1  melting point           265 °C
 8  CCOC(=O)C(=CNc1ccn(Cc2ccccc2)n1)C(=O)OCC  melting point      57 to 59 °C
 9  Cc1nc2cc(NC(=O)c3cc4cc(F)ncc4n3Cc3cccc(F)c3)ccc2s1  melting point    193 to 195 °C
10  Cc1noc(NS(=O)(=O)c2ccsc2C(=O)Nc2cccc(C(=O)O)c2)c1Br  melting point    183 to 185 °C
11  CCCCCCCCSCN1CN(CSCCCCCCCC)c2cccc3cccc1c23  melting point      52 to 56 °C
12  Cc1cc(C2=NOC(C)(c3cc(Cl)cc(Cl)c3)C2)ccc1C(=O)NCC(O)CO (configuration not stated)  melting point            98 °C
13         O=C1CCC(=NNc2ccc(F)cc2)c2ncccc2N1  melting point    232 to 233 °C
14  O=C(O)C(Cc1ccccc1)Nc1ncnc(-c2ccc(OCc3ccccc3)cc2)c1CO (configuration not stated)  melting point    114 to 117 °C
15  Cc1cccc(NC(=O)C2=C(O)c3ccc4ccccc4c3S(=O)(=O)N2)c1  melting point           245 °C
16        CCC(CC)c1ccc(Cl)c2[nH]c(=O)n(C)c12  melting point    165 to 166 °C
17  CCN(c1cc(Cl)c(Cl)cc1Cl)C(C(=O)O)c1ccccc1OC (configuration not stated)  melting point          92.7 °C
18  CCOC(=O)c1cc2cc(C(F)(F)F)cnc2n1Cc1ccccc1  melting point      72 to 73 °C
19  COc1cc(CNC(=O)c2cc3c(=O)n(CC4CCCCC4)c(=O)n(C)c3s2)ccn1  melting point    167 to 210 °C
20  CC(C)Oc1ccc2c(c1)N(C)C(=O)N(c1ccc(Cl)cc1)S2(=O)=O  melting point    157 to 159 °C
21    COc1nc(C)nc(NC(=O)NS(=O)(=O)c2cccs2)n1  melting point    182 to 184 °C
22            CS(=O)(=O)c1ccccc1[N+](=O)[O-]  melting point    102 to 104 °C
